test system: Streptococcus pneumoniae; assay: Antimicrobial activity against Streptococcus pneumoniae RCMB 010010 assessed as absence of turbidity after 24 hrs; format: functional; details: RCMB 010010, 24 h
Measure: MIC (µg/mL)
Answers are plain numbers, in µg/mL.

Worked set:
Molecule Smiles	MIC (µg/mL)
Cc1noc(NS(=O)(=O)c2ccc(NC(=O)c3c(Nc4ccccc4)sc(C#N)c3N)cc2)c1C	62.5
CCOc1ccc(N/N=C(\C#N)C(=O)Nc2ccc(S(=O)(=O)Nc3onc(C)c3C)cc2)cc1	1.95
COc1ccc(-c2c(C#N)c(S)n(-c3ccc(S(=O)(=O)Nc4onc(C)c4C)cc3)c(=O)c2C#N)cc1	0.98

Query compound follows.
INPUT: Hi! What's the reported MIC for Cc1noc(NS(=O)(=O)c2ccc(NC(=O)/C(C#N)=C/N(C)C)cc2)c1C on Streptococcus pneumoniae?
OUTPUT: 1.95

---

test system: Escherichia coli; test: Antimicrobial activity against Escherichia coli RCMB 010052 assessed as inhibition zone at 5 mg/ml after 24 hrs; type: functional; settings: RCMB 010052, 24 h, read-out: IZ
Give zone of inhibition at 5000 µg/mL for every item shown.
Give bare numbers, in mm.

Worked set:
Molecule Smiles	Result Units	Value Measured
Cc1noc(NS(=O)(=O)c2ccc(NC(=O)/C(C#N)=C/c3cccnc3)cc2)c1C	mm	23.7
CC(=O)c1sc(NC23CC4CC(CC(C4)C2)C3)c(C(=O)Nc2ccc(S(=O)(=O)Nc3onc(C)c3C)cc2)c1N	mm	29.9
Cc1noc(NS(=O)(=O)c2ccc(NC(=O)/C(C#N)=C/c3ccccc3)cc2)c1C	mm	20.6
Cc1noc(NS(=O)(=O)c2ccc(-n3c(S)c(C#N)c(-c4ccco4)c(C#N)c3=O)cc2)c1C	mm	21.6
COc1ccc(-c2[nH]nc(N)c2C(=O)Nc2ccc(S(=O)(=O)Nc3onc(C)c3C)cc2)cc1	mm	17.8
C=CCNc1sc(C(C)=O)c(N)c1C(=O)Nc1ccc(S(=O)(=O)Nc2onc(C)c2C)cc1	mm	18.3

Could I get zone of inhibition at 5000 µg/mL for every one of these entries?
1. CCOc1ccc(-n2nc(C(=O)Nc3ccc(S(=O)(=O)Nc4onc(C)c4C)cc3)c(N)c2C#N)cc1
2. Cc1noc(NS(=O)(=O)c2ccc(NC(=O)c3cn[nH]c3N)cc2)c1C
3. Cc1noc(NS(=O)(=O)c2ccc(NC(=O)c3c(Nc4ccccc4)sc(C#N)c3N)cc2)c1C

OUTPUT:
[16.4, 13, 11.2]
